Each entry below lists one item and its recorded Log IC50 C. elegans complex I value.
- Target: C. elegans (N2) complex I (NADH:ubiquinone oxidoreductase) (Caenorhabditis elegans, UniProt P24887+Q93873+Q94360)
- Sequence (Q94360 17-199): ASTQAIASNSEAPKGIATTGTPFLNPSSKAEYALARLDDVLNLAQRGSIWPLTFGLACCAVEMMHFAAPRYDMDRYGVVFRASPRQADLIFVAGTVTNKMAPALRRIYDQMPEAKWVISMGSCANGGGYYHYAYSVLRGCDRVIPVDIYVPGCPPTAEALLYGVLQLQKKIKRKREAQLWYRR
- Sequence (P24887 whole entry): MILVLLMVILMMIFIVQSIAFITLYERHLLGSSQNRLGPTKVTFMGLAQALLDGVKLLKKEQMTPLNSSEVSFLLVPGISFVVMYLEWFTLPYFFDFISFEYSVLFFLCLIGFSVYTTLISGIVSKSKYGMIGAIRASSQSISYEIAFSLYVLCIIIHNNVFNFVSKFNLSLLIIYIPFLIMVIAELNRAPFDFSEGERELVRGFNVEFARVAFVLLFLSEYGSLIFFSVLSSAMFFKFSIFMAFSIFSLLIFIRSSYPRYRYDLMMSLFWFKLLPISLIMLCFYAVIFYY
- Sequence (Q93873 31-482): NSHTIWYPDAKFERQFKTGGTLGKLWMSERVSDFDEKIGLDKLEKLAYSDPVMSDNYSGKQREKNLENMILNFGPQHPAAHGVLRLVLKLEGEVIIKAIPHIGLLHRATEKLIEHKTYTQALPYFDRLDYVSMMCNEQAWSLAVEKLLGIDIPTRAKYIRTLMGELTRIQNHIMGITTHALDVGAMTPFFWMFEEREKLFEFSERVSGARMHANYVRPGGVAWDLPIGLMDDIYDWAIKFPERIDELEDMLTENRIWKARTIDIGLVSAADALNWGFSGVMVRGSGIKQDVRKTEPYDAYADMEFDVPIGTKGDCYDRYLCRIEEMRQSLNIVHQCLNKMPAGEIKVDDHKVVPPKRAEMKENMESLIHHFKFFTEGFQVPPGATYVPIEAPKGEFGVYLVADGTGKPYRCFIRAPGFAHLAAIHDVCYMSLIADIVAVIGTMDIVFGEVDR
- Test description: biochemical
- Format: biochemical
- Run parameters: log10 of IC50 in µM; C. elegans mitochondria
Quick note: give the figure in µM, leave out the unit.

>>> experimental_result("Cc1ccc(SCCCCn2cnc3ccccc32)cc1 [Compound 7925333]")
0.017

Note to self: Log IC50 C. elegans complex I recorded for Cc1ccc(SCCCn2cnc3ccccc32)cc1 [Compound 7926035] was -0.27

Log IC50 C. elegans complex I recorded for this compound, Cc1nc2ccccc2n1Cc1ccc(Cl)cc1 [STK697993] , is -0.96

For record c1ccc2[nH]c(CSc3nc4ccccc4o3)nc2c1 [Compound 5668941] the listed Log IC50 C. elegans complex I is 1.29

Per the records, this compound ( CC(C)Cc1ccc(C(C)c2nc3ccccc3n2C(C)C)cc1 (stereo not shown) [STK951903] ) has Log IC50 C. elegans complex I equal to 0.62

The recorded Log IC50 C. elegans complex I for entry CCCOc1ccc(Cn2cnc3ccccc32)cc1 [Compound 7355741] equals -0.21

Lab book: Log IC50 C. elegans complex I of Nc1nc2ccccc2n1Cc1ccc(Cl)cc1 [Compound 5652765] noted as -0.33

Entry C=CCn1c(-c2ccc(N(C)C)cc2)nc2ccccc21 [Compound 6873298] ; Log IC50 C. elegans complex I = 1.12

Sure, the documented Log IC50 C. elegans complex I for C=CCn1c(C(C)c2ccc(CC(C)C)cc2)nc2ccccc21 (stereo not shown) [STL020755] is 0.36

So for Cc1ccccc1OCCCn1c(C)nc2ccccc21 [Compound 7916923] , the logged Log IC50 C. elegans complex I turned out to be 0.07

----------
- Target: C. elegans (N2) complex I (NADH:ubiquinone oxidoreductase) (Caenorhabditis elegans, UniProt P24887+Q93873+Q94360)
- Test description: biochemical
- Format: biochemical
- Run parameters: dose 0.005 µM; wild-type C. elegans; mean of replicates; read-out: in vitro complex I activity relative to solvent control, Mean
Listed here: items and their measured remaining activity at 0.005 µM.
The response must be a number in % with no trailing unit.

Example results:
>>> experimental_result("C=C(C)[C@H]1Cc2c(ccc3c2O[C@@H]2COc4cc(OC)c(OC)cc4[C@@H]2C3=O)O1 [Rotenone, reference compound]")
101
>>> experimental_result("COC(=O)Nc1nc2ccc(Sc3ccccc3)cc2[nH]1 [fenbendazole, reference compound]")
106
>>> experimental_result("CC(C)(C)c1ccc(CCOc2ncnc3ccccc23)cc1 [Fenazaquin, reference compound]")
42.1
>>> experimental_result("Cc1nc2ccccc2n1Cc1ccc(Cl)cc1 [STK697993]")
93.8

Then this molecule:
Measured remaining activity at 0.005 µM, Cc1ccccc1OCCCCn1cnc2ccccc21 [Compound 7732524] : 87.1

----------
- Target: H. sapiens (HEK293 cells) complex I (Homo sapiens, UniProt O75251+O75306+P03886)
- Sequence (O75251 39-213): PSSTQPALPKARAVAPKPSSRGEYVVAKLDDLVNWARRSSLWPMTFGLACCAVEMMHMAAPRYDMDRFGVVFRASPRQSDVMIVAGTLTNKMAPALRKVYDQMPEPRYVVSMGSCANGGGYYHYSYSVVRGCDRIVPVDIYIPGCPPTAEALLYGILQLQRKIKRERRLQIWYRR
- Sequence (P03886 whole entry): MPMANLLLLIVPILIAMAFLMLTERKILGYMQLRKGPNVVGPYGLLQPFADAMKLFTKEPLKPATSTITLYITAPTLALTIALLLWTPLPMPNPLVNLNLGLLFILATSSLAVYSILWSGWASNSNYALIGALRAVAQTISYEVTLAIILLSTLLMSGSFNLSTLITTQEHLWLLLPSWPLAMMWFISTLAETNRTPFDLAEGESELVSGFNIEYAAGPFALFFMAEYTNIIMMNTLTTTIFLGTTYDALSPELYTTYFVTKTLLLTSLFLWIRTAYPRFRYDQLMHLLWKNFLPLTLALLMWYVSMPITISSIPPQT
- Sequence (O75306 34-463): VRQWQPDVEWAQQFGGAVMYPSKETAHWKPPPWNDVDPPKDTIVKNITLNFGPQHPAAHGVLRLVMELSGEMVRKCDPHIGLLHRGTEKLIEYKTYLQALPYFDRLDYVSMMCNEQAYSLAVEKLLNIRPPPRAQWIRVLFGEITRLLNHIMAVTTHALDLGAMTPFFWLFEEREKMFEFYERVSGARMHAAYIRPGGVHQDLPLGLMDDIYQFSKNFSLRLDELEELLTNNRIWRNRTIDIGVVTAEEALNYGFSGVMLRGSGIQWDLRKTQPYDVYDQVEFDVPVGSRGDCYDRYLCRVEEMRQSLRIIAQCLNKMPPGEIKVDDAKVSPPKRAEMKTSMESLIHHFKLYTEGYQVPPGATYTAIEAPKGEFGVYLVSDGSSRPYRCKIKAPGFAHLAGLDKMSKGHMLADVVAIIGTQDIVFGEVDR
- Test description: In vitro complex I activity assay, HEK293 cell mitochondria
- Run parameters: mitochondria purified from HEK293 cells
pIC50: −log10 of the molar value.
Outcome measure: pIC50

Reported H. sapiens (HEK293 cells) complex I (Homo sapiens, UniProt O75251+O75306+P03886) pIC50 for item CC(C)Cc1ccc(C(C)c2nc3ccccc3n2C)cc1 (stereo not shown) [NPD8790] was < 4.12

----------
- Target: C. elegans complex II (succinate dehydrogenase) (Caenorhabditis elegans, UniProt O62215+P41956+Q09545)
- Sequence (P41956 30-182): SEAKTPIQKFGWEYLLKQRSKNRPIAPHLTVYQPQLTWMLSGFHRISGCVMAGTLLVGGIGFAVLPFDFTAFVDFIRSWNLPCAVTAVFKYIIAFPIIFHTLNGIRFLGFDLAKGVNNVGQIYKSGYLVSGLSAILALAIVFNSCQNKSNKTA
- Sequence (Q09545 22-298): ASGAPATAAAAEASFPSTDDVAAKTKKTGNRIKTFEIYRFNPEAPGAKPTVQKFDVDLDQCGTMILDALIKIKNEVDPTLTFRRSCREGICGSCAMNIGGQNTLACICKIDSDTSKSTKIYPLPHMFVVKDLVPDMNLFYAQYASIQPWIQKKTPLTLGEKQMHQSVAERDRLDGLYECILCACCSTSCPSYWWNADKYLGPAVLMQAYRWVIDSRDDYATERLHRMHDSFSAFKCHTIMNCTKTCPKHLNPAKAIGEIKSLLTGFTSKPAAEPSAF
- Sequence (Q09508 32-646, further chain): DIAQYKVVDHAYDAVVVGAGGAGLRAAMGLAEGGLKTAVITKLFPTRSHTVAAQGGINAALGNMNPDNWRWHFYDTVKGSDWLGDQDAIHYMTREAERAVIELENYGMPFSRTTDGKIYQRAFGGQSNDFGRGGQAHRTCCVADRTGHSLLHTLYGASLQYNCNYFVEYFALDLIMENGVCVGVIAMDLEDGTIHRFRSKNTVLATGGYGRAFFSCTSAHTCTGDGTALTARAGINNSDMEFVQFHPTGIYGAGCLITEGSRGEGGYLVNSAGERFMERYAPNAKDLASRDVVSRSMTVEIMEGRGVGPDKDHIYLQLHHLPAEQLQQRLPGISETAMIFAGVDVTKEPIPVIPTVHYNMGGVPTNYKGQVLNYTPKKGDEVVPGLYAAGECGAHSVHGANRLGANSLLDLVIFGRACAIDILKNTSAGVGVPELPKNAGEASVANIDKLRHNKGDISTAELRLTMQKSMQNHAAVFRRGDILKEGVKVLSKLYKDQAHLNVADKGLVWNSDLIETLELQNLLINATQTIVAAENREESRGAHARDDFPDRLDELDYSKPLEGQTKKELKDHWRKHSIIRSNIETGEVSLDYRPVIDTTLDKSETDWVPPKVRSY
- Sequence (O62215 31-145): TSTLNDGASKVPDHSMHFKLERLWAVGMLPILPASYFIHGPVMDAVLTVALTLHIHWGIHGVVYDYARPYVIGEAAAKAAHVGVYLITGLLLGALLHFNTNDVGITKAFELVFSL
- Test description: In vitro complex II activity assay, C. elegans mitochondria
- Assay type: biochemical
- Run parameters: 100 μM of NPD compound; C. elegans mitochondria; mean of four biological replicates; read-out: Percent in vitro activity, Complex II (Mean)
Outcome measure: activity at 100 µM (%)
Please give a number only; it is taken to be in %.

>>> experimental_result("CCCCCC[C@H]1C(=O)O[C@H](C)[C@H](NC(=O)c2cccc(NC=O)c2O)C(=O)O[C@@H](C)[C@@H]1OC(=O)CC(C)C [Antimycin A, reference compound]")
79.5

The record that follows has no activity at 100 µM shown yet.
For record "COc1cc2c(cc1OC)C(c1ccc(-c3ccc(Cl)c(Cl)c3)o1)=NCC2" the listed activity at 100 µM is 115

----------
activity at 37.5 µM values by entry
- Target: M. musculus (heart) complex I (Mus musculus, UniProt P03888+Q91WD5+Q9DC70)
- Sequence (Q91WD5 34-463): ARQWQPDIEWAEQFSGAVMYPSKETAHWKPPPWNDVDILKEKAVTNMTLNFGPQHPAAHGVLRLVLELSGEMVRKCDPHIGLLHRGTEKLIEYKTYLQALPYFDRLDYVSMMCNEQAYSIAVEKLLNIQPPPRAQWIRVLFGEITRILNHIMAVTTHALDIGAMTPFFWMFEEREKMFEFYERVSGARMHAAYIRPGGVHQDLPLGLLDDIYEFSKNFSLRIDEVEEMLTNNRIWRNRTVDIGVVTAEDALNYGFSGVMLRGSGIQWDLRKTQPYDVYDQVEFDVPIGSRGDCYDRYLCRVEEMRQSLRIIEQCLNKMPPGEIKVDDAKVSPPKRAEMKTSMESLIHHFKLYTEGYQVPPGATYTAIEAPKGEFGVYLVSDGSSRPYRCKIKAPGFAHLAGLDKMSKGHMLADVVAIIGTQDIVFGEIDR
- Sequence (Q9DC70 36-224): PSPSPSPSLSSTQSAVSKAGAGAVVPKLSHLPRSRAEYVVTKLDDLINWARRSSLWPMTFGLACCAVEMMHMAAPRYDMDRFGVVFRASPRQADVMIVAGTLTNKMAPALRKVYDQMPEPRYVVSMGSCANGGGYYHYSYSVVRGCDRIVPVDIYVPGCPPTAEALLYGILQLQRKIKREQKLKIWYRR
- Sequence (P03888 whole entry): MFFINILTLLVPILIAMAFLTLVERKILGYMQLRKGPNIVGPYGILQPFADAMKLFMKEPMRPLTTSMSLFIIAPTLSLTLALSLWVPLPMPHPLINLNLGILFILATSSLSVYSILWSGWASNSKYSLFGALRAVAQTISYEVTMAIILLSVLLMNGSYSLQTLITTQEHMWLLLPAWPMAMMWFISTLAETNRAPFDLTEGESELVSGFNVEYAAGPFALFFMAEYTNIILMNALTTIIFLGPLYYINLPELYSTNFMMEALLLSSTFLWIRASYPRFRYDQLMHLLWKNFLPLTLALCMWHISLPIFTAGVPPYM
- Test description: biochemical
- Assay type: biochemical
- Run parameters: M. musculus; dose 37.5 µM; Mean of replicates; read-out: Complex I activity, dose-response data
Please give a number only; it is taken to be in %.

Illustrative cases are given below, each with its answer.
>>> experimental_result("COc1cc2c(cc1OC)C(/C=C/c1ccc(N(C)C)cc1)=NCC2")
54.3
>>> experimental_result("COc1cc2c(cc1OC)C(c1ccc(-c3ccc(Cl)c(Cl)c3)o1)=NCC2")
55.4
>>> experimental_result("CC(C)Cc1ccc(C(C)c2nc3ccccc3n2C)cc1 (stereo not shown)")
44.3

We now examine a further molecule.
Per the reported M. musculus (heart) complex I (Mus musculus, UniProt P03888+Q91WD5+Q9DC70) data, COc1cc2c(cc1OC)C(C(C)c1ccc(CC(C)C)cc1)=NCC2 (stereo not shown) has activity at 37.5 µM of 10.6

----------
Reported values of Value relative to DMSO control, drug alone (without KCN), Mean for individual entries
- Test system: L1 wild-type C. elegans
- Test description: 15-hour motility assay with drug alone (no KCN)
- Assay type: cell-based, Caenorhabditis elegans
- Run parameters: without KCN, 0.2 µM, 15-hour, mean of replicates
Provide a numeric answer; units are not to be included.

Consider the reported Value relative to DMSO control, drug alone (without KCN), Mean for these compounds:
>>> experimental_result("O=C(Nc1cc(Cl)cc(Cl)c1O)c1c(O)c(Cl)cc(Cl)c1Cl [Oxyclozanide]")
0.862
>>> experimental_result("O=C(Nc1ccc(Oc2ccc(Cl)cc2)c(Cl)c1)c1cc(I)cc(I)c1O [Rafoxanide]")
0.871
>>> experimental_result("O=C(Nc1ccc([N+](=O)[O-])cc1Cl)c1cc(Cl)ccc1O [Niclosamide]")
0.857

Entry under test: Cc1cc(C(C#N)c2ccc(Cl)cc2)c(Cl)cc1NC(=O)c1cc(I)cc(I)c1O (stereo not shown) . Its Value relative to DMSO control, drug alone (without KCN), Mean was 1.003

----------
- Tested on: L1 wild-type C. elegans
- Run parameters: 50 μM compound; […]; worm motility 3 hours after removal of KCN, relative to DMSO controls; single biological replicate
Outcome: met for Relative Motility of at least 0.04; not met for anything lower.

Sample answers from the record:
>>> classification("Cc1nc2ccccc2n1Cc1ccc(Cl)cc1 [STK697993]")
"not met"
>>> classification("c1ccc2c(c1)ncn2CCOc1ccc2c(c1)CCC2 [Compound 7925762]")
"met"
>>> classification("C(=C\\c1nc2ccccc2[nH]1)/c1ccccc1 [STK871091]")
"not met"
>>> classification("CCc1ccc(OC(C)c2nc3ccccc3[nH]2)cc1 (centres unmarked) [STK914290]")
"met"

Exam item: Is Relative Motility for CCc1ccc(CNc2nc3ccccc3n2C)cc1 [STK498539] at or above 0.04?
Marked response: met

----------
- Target: C. elegans (N2) complex I (NADH:ubiquinone oxidoreductase) (Caenorhabditis elegans, UniProt P24887+Q93873+Q94360)
- Test description: biochemical
- Assay type: biochemical
- Run parameters: Dose 0.001 µM; read-out: C. elegans mitochondrial complex I activity
Listed next: entries and their corresponding activity at 0.001 µM.
Express it in %; write the number only.

Use the examples below as a reference point.
>>> experimental_result("CCCn1c(COc2ccc(C)cc2)nc2ccccc21")
96.6
>>> experimental_result("CCc1cc(OCCn2cnc3ccccc32)ccc1Cl")
94
>>> experimental_result("Clc1ccc(Cn2cnc3ccccc32)c(Cl)c1")
101
>>> experimental_result("Nc1nc2ccccc2n1CCOc1ccc(Br)cc1")
87.5
>>> experimental_result("FC(F)(F)c1cccc(OCCCCn2cnc3ccccc32)c1")
110

Item: "Cc1nc2ccccc2n1CCOc1ccccc1" | activity at 0.001 µM: 88.8

The compound "Cc1cccc(OCCn2c(C)nc3ccccc32)c1" showed activity at 0.001 µM equal to 86.9

Record summary for "Cc1ccccc1OCCCn1c(C)nc2ccccc21" : reported activity at 0.001 µM = 94.8

// field: activity at 0.001 µM; key: "Clc1ccc(OCCn2cnc3ccccc32)c(Cl)c1" ; value = 98.6

For "Cc1ccc(SCCCCn2cnc3ccccc32)cc1" the compound record lists activity at 0.001 µM as 101
